Cited source: patent US6399659B2

# System: Mamestra brassicae
# ASSAY PROTOCOL: Effect on Mamestra brassicae, insecticidal activity as in Biological Test Example 1
# Format: in vivo
# CONDITION PARAMETERS: 2.5 ppm
OUTCOME MEASURE: insecticidal activity (death rate) (%)
One number for each entry, in %.

{"columns": ["COMPOUND", "ENDPOINT UNIT", "insecticidal activity (death rate)"],
 "data": [
  ["CCNC(=O)C(=O)NN=C(c1ccc(Br)cc1)c1ccc(OS(=O)(=O)C(F)(F)F)cc1 [Compound 1-517]", "%", 100],
  ["O=C(NN=C(c1ccc(Cl)cc1)c1ccc(OS(=O)(=O)C(F)(F)F)cc1)C(=O)NC1CC1 [Compound 1-43]", "%", 67],
  ["CCCNC(=O)C(=O)NN=C(c1ccc(Cl)cc1)c1ccc(OS(=O)(=O)C(F)(F)F)cc1 [Compound 1-7]", "%", 70]
]}

# context switch: different compound, same insecticidal activity (death rate)
Q: Answer with the recorded insecticidal activity (death rate) of CN(C)C(=O)C(=O)N/N=C(/c1ccc(Cl)cc1)c1ccc(OS(=O)(=O)C(F)(F)F)cc1 [Compound 1-133] only.
A: 100

###

Would you mind telling me the reported death rate of each entry?
# Test system: Spodoptera litura
# ASSAY PROTOCOL: Effect on Spodoptera litura, sprayed Chinese cabbage leaves, death rate
# Type: in vivo
# CONDITION PARAMETERS: 0.5 ppm, third-instar larvae, 48 hours
Answers are plain numbers, in %.

{"columns": ["MOLECULE", "TARGET OR TEST SYSTEM", "ENDPOINT UNIT", "NUMERIC VALUE"],
 "data": [
  ["CNC(=O)C(=O)NN=C(c1ccc(Br)cc1)c1ccc(OS(=O)(=O)C(F)(F)F)cc1 [Compound 1-515]", "Spodoptera litura", "%", 75],
  ["O=C(NN=C(c1ccc(Br)cc1)c1ccc(OS(=O)(=O)C(F)(F)F)cc1)C(=O)NC1CC1 [Compound 1-555]", "Spodoptera litura", "%", 40],
  ["CN(C)C(=O)C(=O)N/N=C(/c1ccc(Cl)cc1)c1ccc(OS(=O)(=O)C(F)(F)F)cc1 [Compound 1-133]", "Spodoptera litura", "%", 90],
  ["C=CCNC(=O)C(=O)NN=C(c1ccc(Cl)cc1)c1ccc(OS(=O)(=O)C(F)(F)F)cc1 [Compound 1-27]", "Spodoptera litura", "%", 70],
  ["CCNC(=O)C(=O)NN=C(c1ccc(Cl)cc1)c1ccc(CSC(F)(F)F)cc1 [Compound 2-6]", "Spodoptera litura", "%", 50]
]}

Consider the following items and state reported death rate for each.
1. CCCNC(=O)C(=O)NN=C(c1ccc(Cl)cc1)c1ccc(OS(=O)(=O)C(F)(F)F)cc1 [Compound 1-7]
2. O=C(NN=C(c1ccc(Cl)cc1)c1ccc(OS(=O)(=O)C(F)(F)F)cc1)C(=O)NC1CC1 [Compound 1-43]

A:
1. 70
2. 90

###

What insecticidal activity (death rate) was measured for each of the following?
# Test system: Mamestra brassicae
# ASSAY PROTOCOL: Effect on Mamestra brassicae, insecticidal activity as in Biological Test Example 1
# Format: in vivo
# CONDITION PARAMETERS: 2.5 ppm
One number for each entry, in %.

{"columns": ["LINE NOTATION", "OUTCOME MEASURE", "ENDPOINT UNIT", "NUMERIC VALUE"],
 "data": [
  ["CNC(=O)C(=O)NN=C(c1ccc(Br)cc1)c1ccc(OS(=O)(=O)C(F)(F)F)cc1", "insecticidal activity (death rate)", "%", 80],
  ["C#CCNC(=O)C(=O)NN=C(c1ccc(Cl)cc1)c1ccc(OS(=O)(=O)C(F)(F)F)cc1", "insecticidal activity (death rate)", "%", 100],
  ["C=CCNC(=O)C(=O)NN=C(c1ccc(Cl)cc1)c1ccc(OS(=O)(=O)C(F)(F)F)cc1", "insecticidal activity (death rate)", "%", 100]
]}

Proceeding to the next compound to report its insecticidal activity (death rate).
Q: Output insecticidal activity (death rate) of "CNC(=O)C(=O)NN=C(c1ccc(Cl)cc1)c1ccc(OS(=O)(=O)C(F)(F)F)cc1"
A: 89

###

# Tested on: Spodoptera litura
# ASSAY PROTOCOL: Effect on Spodoptera litura, sprayed Chinese cabbage leaves, death rate
# Assay type: in vivo
# CONDITION PARAMETERS: 0.5 ppm, third-instar larvae, 48 hours
Assignment: determine reported death rate for the given compounds.
One number for each entry, in %.

Before answering, review these 3 worked examples.
{"columns": ["COMPOUND", "ENDPOINT UNIT", "NUMERIC VALUE"],
 "data": [
  ["CNC(=O)C(=O)N(C)N=C(c1ccc(Cl)cc1)c1ccc(OS(=O)(=O)C(F)(F)F)cc1 [Compound 1-178]", "%", 30],
  ["CCNC(=O)C(=O)NN=C(c1ccc(Br)cc1)c1ccc(OS(=O)(=O)C(F)(F)F)cc1 [Compound 1-517]", "%", 60],
  ["CNC(=O)C(=O)NN=C(c1ccc(Cl)cc1)c1ccc(OS(=O)(=O)C(F)(F)F)cc1 [Compound 1-3]", "%", 50]
]}

Q: Please list death rate recorded for the compound C#CCNC(=O)C(=O)NN=C(c1ccc(Cl)cc1)c1ccc(OS(=O)(=O)C(F)(F)F)cc1 [Compound 1-37]
A: 60

###

# System: Spodoptera litura
# ASSAY PROTOCOL: Effect on Spodoptera litura, sprayed Chinese cabbage leaves, death rate
# Format: in vivo
# CONDITION PARAMETERS: 50 ppm, third-instar larvae, 48 hours
# Protocol: An emulsion was prepared from each of the present compounds listed below, in the same manner as that of Preparation Example 2. The obtained emulsion was diluted with water so that the concentration of the present compound would be 50 ppm, 5 ppm or 0.5 ppm to obtain diluted aqueous emulsions. The diluted aqueous emulsions were sprayed on leaves of Chinese cabbages of a 3-4 leave stage. […] 48 hours after, the numbers of surviving and dead ones were counted, and the death rate was calculated.
OUTCOME MEASURE: death rate (%)
Answers are plain numbers, in %.

Please go through the list and note death rate for each compound.
1. C=CCNC(=O)C(=O)NN=C(c1ccc(Cl)cc1)c1ccc(OS(=O)(=O)C(F)(F)F)cc1
2. COC(=O)C(=O)N/N=C(/c1ccc(Cl)cc1)c1ccc(OS(C)(=O)=O)cc1 [Comparative compound C, reference compound]
3. CNC(=O)C(=O)NN=C(c1ccc(Cl)cc1)c1ccc(OS(=O)(=O)C(F)(F)F)cc1
4. CCNC(=O)C(=O)NN=C(c1ccc(Br)cc1)c1ccc(OS(=O)(=O)C(F)(F)F)cc1
5. CN(C)C(=O)C(=O)N/N=C(/c1ccc(Cl)cc1)c1ccc(OS(=O)(=O)C(F)(F)F)cc1

A:
1: 100; 2: 100; 3: 100; 4: 100; 5: 100

Batch lookup, death rate per entry.
1. C#CCNC(=O)C(=O)NN=C(c1ccc(Cl)cc1)c1ccc(OS(=O)(=O)C(F)(F)F)cc1
2. CCCNC(=O)C(=O)NN=C(c1ccc(Cl)cc1)c1ccc(OS(=O)(=O)C(F)(F)F)cc1

A:
[100, 100]
